METHOD DESCRIPTION: Cmax in cynomolgus monkey at 10 mg/kg, po
Assay type: ADME, organism-based, Macaca fascicularis
Set-up: dose 10 mg/kg, route oral
CONDITIONS: in vivo
RECORDED ENDPOINT: Cmax (µg/mL)
Return type: number; implicit unit µg/mL.

Annotate the compound "Cn1c(=O)c(Oc2ccc(F)cc2F)cc2cnc(NC3CCOCC3)nc21" with its measured Cmax.
1.56

* * *

RECORDED ENDPOINT: Kd (nM)
All answers are understood in nM, so give the number only.

Lab note: record Kd of "Cn1c(=O)c(Oc2ccc(F)cc2F)cc2cnc(NC3CCOCC3)nc21" tested on Serine/threonine-protein kinase 36 (Homo sapiens, UniProt Q9NRP7).
Sequence (Q9NRP7 whole entry): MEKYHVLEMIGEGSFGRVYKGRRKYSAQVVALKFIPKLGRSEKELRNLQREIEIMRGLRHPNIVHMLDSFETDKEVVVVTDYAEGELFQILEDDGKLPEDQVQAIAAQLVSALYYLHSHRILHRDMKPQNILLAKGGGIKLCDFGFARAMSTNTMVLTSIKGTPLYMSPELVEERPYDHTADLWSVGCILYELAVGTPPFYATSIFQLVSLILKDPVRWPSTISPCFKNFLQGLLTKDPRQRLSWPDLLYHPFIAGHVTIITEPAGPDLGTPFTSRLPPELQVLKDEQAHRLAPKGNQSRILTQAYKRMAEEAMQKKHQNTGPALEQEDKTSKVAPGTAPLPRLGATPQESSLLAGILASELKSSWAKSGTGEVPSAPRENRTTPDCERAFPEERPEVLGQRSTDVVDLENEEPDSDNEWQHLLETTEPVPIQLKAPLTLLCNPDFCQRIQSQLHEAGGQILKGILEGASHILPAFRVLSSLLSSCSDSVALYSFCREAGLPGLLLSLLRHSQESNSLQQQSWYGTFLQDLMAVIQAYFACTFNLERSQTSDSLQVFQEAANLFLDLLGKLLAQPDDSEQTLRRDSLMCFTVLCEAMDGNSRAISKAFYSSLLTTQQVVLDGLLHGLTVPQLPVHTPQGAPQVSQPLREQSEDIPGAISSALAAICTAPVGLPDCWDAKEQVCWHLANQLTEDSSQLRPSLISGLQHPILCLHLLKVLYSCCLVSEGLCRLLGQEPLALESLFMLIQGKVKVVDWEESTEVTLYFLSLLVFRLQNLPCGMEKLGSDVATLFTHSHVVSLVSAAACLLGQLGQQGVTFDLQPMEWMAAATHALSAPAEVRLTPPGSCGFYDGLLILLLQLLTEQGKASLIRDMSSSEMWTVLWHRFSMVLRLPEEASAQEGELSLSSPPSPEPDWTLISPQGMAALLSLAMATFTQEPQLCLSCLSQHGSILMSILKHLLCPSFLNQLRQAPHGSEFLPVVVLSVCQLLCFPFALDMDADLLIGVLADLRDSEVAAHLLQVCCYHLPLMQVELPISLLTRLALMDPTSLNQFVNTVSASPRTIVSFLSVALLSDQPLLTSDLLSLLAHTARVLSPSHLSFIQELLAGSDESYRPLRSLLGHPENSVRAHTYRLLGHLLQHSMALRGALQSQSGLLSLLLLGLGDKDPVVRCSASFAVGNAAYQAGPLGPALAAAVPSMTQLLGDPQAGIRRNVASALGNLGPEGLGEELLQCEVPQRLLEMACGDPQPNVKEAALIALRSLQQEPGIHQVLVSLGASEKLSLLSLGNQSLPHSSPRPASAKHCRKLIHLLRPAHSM
330

* * *

METHOD DESCRIPTION: Plasma protein binding in Hanover-Wistar rat by untrafiltration method
Format: ADME, cell-free
CONDITIONS: read-out: PPB (converted)
RECORDED ENDPOINT: fraction unbound
I'd appreciate a reply containing only the number, no unit.

// Input: "Cn1c(=O)c(Oc2ccc(F)cc2F)cc2cnc(NC(CCO)CCO)nc21" . Output its fraction unbound only.
0.171

Tell us which fraction unbound value is on record for Cl.Cn1c(=O)c(Oc2ccc(F)cc2F)cc2cnc(NC3CCOCC3)nc21 [R-1487 HYDROCHLORIDE]
0.044

* * *

METHOD DESCRIPTION: Volume of distribution at steady state in cynomolgus monkey at 10 mg/kg, iv
Format: ADME, organism-based, Macaca fascicularis
Set-up: dose 10 mg/kg, route intravenous
CONDITIONS: in vivo, read-out: Vdss
RECORDED ENDPOINT: Vd (L/kg)
A number alone suffices; assume L/kg.

Identify the reported Vd for the following entry. Cn1c(=O)c(Oc2ccc(F)cc2F)cc2cnc(NC3CCOCC3)nc21 [R-1487]
2.73

* * *

TARGET DESC: Mitogen-activated protein kinase 14 (Homo sapiens, UniProt Q16539)
Sequence (Q16539 whole entry): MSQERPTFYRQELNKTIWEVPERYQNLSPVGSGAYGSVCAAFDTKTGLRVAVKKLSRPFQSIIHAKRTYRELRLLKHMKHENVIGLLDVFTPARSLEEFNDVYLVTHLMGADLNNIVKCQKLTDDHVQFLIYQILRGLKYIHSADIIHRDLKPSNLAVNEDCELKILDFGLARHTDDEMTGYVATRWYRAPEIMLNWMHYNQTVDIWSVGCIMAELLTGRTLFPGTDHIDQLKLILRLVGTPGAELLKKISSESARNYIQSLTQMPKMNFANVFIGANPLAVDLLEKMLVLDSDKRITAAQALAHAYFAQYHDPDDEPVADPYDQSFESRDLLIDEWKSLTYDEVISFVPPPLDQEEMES
METHOD DESCRIPTION: Inhibition of human recombinant p38alpha assessed as incorporation of 33P from gamma-[33P]ATP into myelin basic protein after 30 mins by scintillation counting
RECORDED ENDPOINT: pIC50
Scale: pIC50 equals -log10([C]), with [C] in mol/L.

Would you please give the reported pIC50 of "CCn1c(=O)c(Oc2ccc(F)cc2F)cc2cnc(NC3CCOCC3)nc21" with Mitogen-activated protein kinase 14 (Homo sapiens, UniProt Q16539)?
9.00

State recorded pIC50 with Mitogen-activated protein kinase 14 (Homo sapiens, UniProt Q16539), entry "Cn1c(=O)c(Oc2ccc(F)cc2F)cc2cnc(NC3CCS(=O)(=O)CC3)nc21" , no comment.
7.82

Recall the reported pIC50 of "Cn1c(=O)c(Oc2cccc(F)c2)cc2cnc(NC3CCOCC3)nc21" on Mitogen-activated protein kinase 14 (Homo sapiens, UniProt Q16539) and write it down.
6.23

Fill in pIC50 for "Cn1c(=O)c(Oc2ccc(F)cc2F)cc2cnc(NCCS(C)(=O)=O)nc21" tested with Mitogen-activated protein kinase 14 (Homo sapiens, UniProt Q16539).
6.65

Lab note: record pIC50 of "Cn1c(=O)c(Oc2ccc(F)cc2F)cc2cnc(NC(C)(C)CO)nc21" tested on Mitogen-activated protein kinase 14 (Homo sapiens, UniProt Q16539).
7.60
